Target: T1, human EphA1 (Homo sapiens, UniProt P21709)
T1 construct: a protein of the extracellular region of each human Eph receptor fused with the SEAP protein and the His tag; made in house; host or cells: Expi293F cells (culture supernatant)
T1 sequence (P21709 26-547 limits assumed): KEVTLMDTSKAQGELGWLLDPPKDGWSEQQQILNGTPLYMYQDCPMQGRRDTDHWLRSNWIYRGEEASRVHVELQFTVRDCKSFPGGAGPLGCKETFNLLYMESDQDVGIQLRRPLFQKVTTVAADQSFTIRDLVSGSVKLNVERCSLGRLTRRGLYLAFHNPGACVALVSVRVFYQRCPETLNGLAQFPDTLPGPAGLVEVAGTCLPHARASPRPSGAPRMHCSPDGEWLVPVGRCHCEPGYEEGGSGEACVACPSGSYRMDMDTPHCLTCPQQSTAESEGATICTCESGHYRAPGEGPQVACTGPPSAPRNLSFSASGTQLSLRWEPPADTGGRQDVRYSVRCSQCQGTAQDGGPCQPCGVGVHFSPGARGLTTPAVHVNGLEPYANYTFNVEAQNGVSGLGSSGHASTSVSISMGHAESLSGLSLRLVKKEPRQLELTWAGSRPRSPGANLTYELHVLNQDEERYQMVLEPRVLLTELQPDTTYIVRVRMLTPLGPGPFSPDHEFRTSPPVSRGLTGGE
Assay: Selectivity ELISA of humanized antibodies for human Eph receptor
Assay type: binding
Conditions: coated protein 1 nM
Reported metric: hEphA1-SEAP-: absorbance at 450 nm, percentage with respect to hEphA4-SEAP-His as 100% (%)
Write the value in % as a bare number.

Ask: Which hEphA1-SEAP-: absorbance at 450 nm, percentage with respect to hEphA4-SEAP-His as 100% reading was recorded for the molecule 133 (antibody, V domains shown, synthetic humanized antibody heavy chain variable region sequence; synthetic humanized antibody light chain variable region sequence) VH: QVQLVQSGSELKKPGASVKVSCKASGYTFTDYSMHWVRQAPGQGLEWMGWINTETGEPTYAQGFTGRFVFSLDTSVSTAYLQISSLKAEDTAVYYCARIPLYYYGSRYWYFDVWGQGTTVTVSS VL: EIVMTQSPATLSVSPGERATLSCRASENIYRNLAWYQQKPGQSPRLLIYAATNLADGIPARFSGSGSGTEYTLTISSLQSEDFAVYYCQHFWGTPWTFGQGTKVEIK ?
Result: 4.9
